Where do the numbers come from? From the supplement of paper PMC4862054.

# System: SK-BR-3
# experiment: normalised response (% of control), CellTiter-Glo; higher = more viable cells (100 = DMSO, 0 = benzethonium chloride kill control)
# condition context: incubation time: 72 h
Provide the recorded normalised response for the entries that follow.
Answer format: value, then unit.

- molecule: "COCC1(CO)C(=O)C2CCN1CC2 (stereo not drawn) [Prima-1 Met] (100 nM)"
  normalised response: "98.7%"
- molecule: "O=C(Nc1cccnc1)N1CCC(Cc2cccc(Oc3ccc(C(F)(F)F)cn3)c2)CC1 [PF-3845] (100 nM)"
  normalised response: "112%"
- molecule: "COc1cc2/c(=N/c3ccc(Br)cc3F)nc[nH]c2cc1OCC1CCN(C)CC1 [Vandetanib] (10 nM)"
  normalised response: "82.3%"

# map each molecule to its normalised response
1. CC(C)C[C@@H](C(=O)N[C@H](C(=O)OC1CCCC1)c1ccccc1)[C@H](O)C(=O)NO [Tosedostat] (100 nM)
2. O=C(/C=C/c1cccc(S(=O)(=O)Nc2ccccc2)c1)NO [Belinostat] (100 nM)
3. N#Cc1ccc(COC[C@H]2O[C@@H](n3c(NCc4ccc(Cl)c(Cl)c4)nc4c(N)ncnc43)[C@H](O)[C@@H]2O)cc1 (100 nM)
4. CCOC(=O)CCNc1cc(N2CCc3ccccc3CC2)nc(-c2ccccn2)n1 [GSK-J4] (1000 nM)

Result:
["82.8%", "82.7%", "104%", "98.5%"]

Form: molecule = Nc1cc(C(F)(F)F)c(-c2cc(N3CCOCC3)nc(N3CCOCC3)n2)cn1 [Buparlisib] (100 nM) ; normalised response = 91.2%

====

Provide the recorded drug sensitivity score for the entries that follow.
# Tested on: DU-4475
# experiment: drug sensitivity score (DSS), CellTox Green (DSS (AUC-based score)); higher = stronger drug effect (viability inhibition or cytotoxicity); extreme values may be limits of the assay
# condition context: incubation time: 72 h

As a guide, the following entries are already answered.
- compound: "O=P1(N(CCCl)CCCl)NCCCO1 (stereo not drawn) [Cyclophosphamide]"
  drug sensitivity score: 0
- compound: "COc1cc(O)c2c(c1)/C=C/C[C@H](O)[C@H](O)C(=O)/C=C\\C[C@H](C)OC2=O"
  drug sensitivity score: 4.86
- compound: "CCn1c(-c2nonc2N)nc2cnc(Oc3cccc(NC(=O)c4ccc(OCCN5CCOCC5)cc4)c3)cc21"
  drug sensitivity score: 0
- compound: "CC(C)C[C@@H](C(=O)N[C@H](C(=O)OC1CCCC1)c1ccccc1)[C@H](O)C(=O)NO"
  drug sensitivity score: 0
- compound: "Cc1ccc(NC(=O)c2ccc(CN3CCN(C)CC3)cc2)cc1Nc1nc(-c2cccnc2)cs1"
  drug sensitivity score: 0

# map each compound to its drug sensitivity score
1. COC(=O)c1ccc2c(c1)NC(=O)/C2=C(\Nc1ccc(N(C)C(=O)CN2CCN(C)CC2)cc1)c1ccccc1
2. CN(C)c1nc(N(C)C)nc(N(C)C)n1
3. Cc1[nH]c2ccccc2c1CCNCc1ccc(/C=C/C(=O)NO)cc1

Result:
1. 0
2. 0
3. 6.99

====

Provide the recorded normalised response for the entries that follow.
# Test system: MFM-223
# experiment: normalised response (% of control), CellTiter-Glo; higher = more viable cells (100 = DMSO, 0 = benzethonium chloride kill control)
# condition context: incubation time: 72 h
Answers are plain numbers, in %.

# map each molecule to its normalised response
1. O=C(/C=C/c1cccc(S(=O)(=O)Nc2ccccc2)c1)NO [Belinostat] (10 nM)
2. Oc1ccc2c(c1)CC[C@H](c1ccccc1)[C@@H]2c1ccc(OCCN2CCCC2)cc1 [Lasofoxifene] (0.1 nM)
3. CNC(=O)c1cccc(-c2ccc3c(N4CCOC[C@@H]4C)nc(N4CCOC[C@@H]4C)nc3n2)c1 [AZD2014] (10 nM)
4. COc1cc(O)c2c(c1)/C=C/C[C@H](O)[C@H](O)C(=O)/C=C\C[C@H](C)OC2=O [(5Z)-7-Oxozeaenol] (1 nM)
5. CNC(=O)c1cccc(-c2ccc3c(N4CCOC[C@@H]4C)nc(N4CCOC[C@@H]4C)nc3n2)c1 [AZD2014] (1 nM)

Result:
1: 88.5; 2: 103; 3: 106; 4: 108; 5: 106

# map each molecule to its normalised response
1. Cc1cc(Nc2cc(CN3CCOCC3)c3nc(C)c(Cc4ccc(Cl)cc4F)n3n2)n[nH]1 [Gandotinib] (10 nM)
2. CNC(=O)c1ccc(N2C(=S)N(c3ccc(C#N)c(C(F)(F)F)c3)C(=O)C2(C)C)cc1F [Enzalutamide] (1 nM)

Result:
1. 105
2. 99.6

====

Provide the recorded normalised viability for the entries that follow.
# Tested on: HCC1937
# experiment: normalised viability (% of control), CellTiter-Blue; higher = more viable cells (about 100 = DMSO control)
# condition context: 10000 nM; incubation time: 72 h
One number for each entry, in %.

As a guide, the following entries are already answered.
- smiles code: "Nc1cc(C(F)(F)F)c(-c2cc(N3CCOCC3)nc(N3CCOCC3)n2)cn1"
  quantitative readout: 13.7
- smiles code: "O=C(Nc1cccnc1)N1CCC(Cc2cccc(Oc3ccc(C(F)(F)F)cn3)c2)CC1"
  quantitative readout: 97.2
- smiles code: "S=P(N1CC1)(N1CC1)N1CC1"
  quantitative readout: 93.4
- smiles code: "COc1cc(OC2CCN(C)CC2)ccc1Nc1ncc2c(n1)n(C1CCCC1)c(=O)n2C"
  quantitative readout: 92

Next molecule, normalised viability to be filled in.
Form: molecule = COCC[n+]1c2c(n(Cc3cnccn3)c1C)C(=O)c1ccccc1C2=O ; normalised viability = 2.31

====

# Tested on: HCC1143
# experiment: drug sensitivity score (DSS), CellTiter-Blue viability (DSS (AUC-based score)); higher = stronger viability inhibition; extreme values may be limits of the assay
# condition context: incubation time: 72 h
Provide the recorded drug sensitivity score for the entries that follow.

As a guide, the following entries are already answered.
- compound: "CO[C@H]1C[C@@H]2CC[C@@H](C)[C@@](O)(O2)C(=O)C(=O)N2CCCC[C@H]2C(=O)O[C@H]([C@H](C)C[C@@H]2CC[C@@H](OP(C)(C)=O)[C@H](OC)C2)CC(=O)[C@H](C)/C=C(\\C)[C@@H](O)[C@@H](OC)C(=O)[C@H](C)C[C@H](C)/C=C/C=C/C=C/1C [Ridaforolimus]"
  subject of test: "HCC1143"
  result: 16.3
- compound: "O=C(Nc1cccnc1)N1CCC(Cc2cccc(Oc3ccc(C(F)(F)F)cn3)c2)CC1 [PF-3845]"
  subject of test: "HCC1143"
  result: 0
- compound: "CN(C)CCOc1ccc(/C(=C(/CCCl)c2ccccc2)c2ccccc2)cc1 [Toremifene]"
  subject of test: "HCC1143"
  result: 0
- compound: "CN(C)c1nc(N(C)C)nc(N(C)C)n1 [Altretamine]"
  subject of test: "HCC1143"
  result: 0
- compound: "Cc1ccc(NC(=O)c2ccc(CN3CCN(C)CC3)cc2)cc1Nc1nc(-c2cccnc2)cs1 [Masitinib]"
  subject of test: "HCC1143"
  result: 0

# map each compound to its drug sensitivity score
1. S=P(N1CC1)(N1CC1)N1CC1 [Thio-TEPA]
2. N#Cc1ccc(COC[C@H]2O[C@@H](n3c(NCc4ccc(Cl)c(Cl)c4)nc4c(N)ncnc43)[C@H](O)[C@@H]2O)cc1
3. C=C1C[C@@H]2[C@H](CC[C@]3(C)C(=O)CC[C@@H]23)[C@@]2(C)C=CC(=O)C=C12 [Exemestane]

Result:
1. 0
2. 0
3. 0

====

# Test system: MDA-MB-436
# experiment: normalised response (% of control), CellTox Green; higher = less cell death (100 = DMSO, 0 = benzethonium chloride kill control)
# condition context: incubation time: 72 h
Provide the recorded normalised response for the entries that follow.
One number for each entry, in %.

- compound: "O=C(/C=C/c1cccc(S(=O)(=O)Nc2ccccc2)c1)NO [Belinostat] (1000 nM)"
  subject of test: "MDA-MB-436"
  normalised response (%): 79.3
- compound: "O=C(/C=C/c1cccc(S(=O)(=O)Nc2ccccc2)c1)NO [Belinostat] (10000 nM)"
  subject of test: "MDA-MB-436"
  normalised response (%): 112

# map each compound to its normalised response
1. CNC(=O)c1cccc(-c2ccc3c(N4CCOC[C@@H]4C)nc(N4CCOC[C@@H]4C)nc3n2)c1 [AZD2014] (100 nM)
2. CNC(=O)c1ccc(N2C(=S)N(c3ccc(C#N)c(C(F)(F)F)c3)C(=O)C23CCC3)cc1F [RD162] (100 nM)
3. COc1cc(OC2CCN(C)CC2)ccc1Nc1ncc2c(n1)n(C1CCCC1)c(=O)n2C [AZ 3146] (100 nM)
4. Cc1cc(Nc2cc(CN3CCOCC3)c3nc(C)c(Cc4ccc(Cl)cc4F)n3n2)n[nH]1 [Gandotinib] (100 nM)
5. NC(=O)c1ccc(I)c([N+](=O)[O-])c1 [Iniparib] (10000 nM)
6. COCC1(CO)C(=O)C2CCN1CC2 (stereo not drawn) [Prima-1 Met] (1000 nM)

Result:
1. 118
2. 83.4
3. 77.7
4. 100
5. 77.5
6. 71
